# experimental-system: human PD-L1 / Human PD-1 (Homo sapiens (Human), UniProt Q9NZQ7)
# Sequence (Q9NZQ7 19-239): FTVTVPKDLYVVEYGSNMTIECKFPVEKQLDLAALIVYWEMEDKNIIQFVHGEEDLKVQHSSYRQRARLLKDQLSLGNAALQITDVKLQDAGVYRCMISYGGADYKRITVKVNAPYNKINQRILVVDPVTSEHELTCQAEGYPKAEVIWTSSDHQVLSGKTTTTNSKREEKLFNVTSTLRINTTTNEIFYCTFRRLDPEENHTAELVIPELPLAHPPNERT
# protocol-summary: Enzyme-Linked Immunosorbent Assay (ELISA), PD-1/PD-L1 binding
# settings: plate-coated human PD-L1, biotinylated human PD-1
# Method: Biological Example: Enzyme-Linked Immunosorbent Assay—ELISA 96 Well plates were coated with […] of human PD-L1 (obtained from R&D) in PBS overnight at 4° C. The wells were then blocked with 2% BSA in PBS (W/V) with 0.05% TWEEN-20 for 1 hour at 37° C. The plates were washed 3 times with PBS/0.05% TWEEN-20 and the compounds were serial diluted (1:5) in dilution medium and added to the ELISA plates. […] The absorbance was read at 450 nm using a micro-plate spectrophotometer.
property-name: IC50

Sample records with IC50:
Cc1c(OCCCN2CCC(F)CC2)cccc1-c1cccc2c1CC[C@@H]2Oc1cc(OCc2cc(C#N)cc(C#N)c2)c(CN[C@H]2CCCCNC2=O)cc1Cl
5 to 500 nM
Cc1c(OCCCN2CCCC[C@@H]2C)cccc1-c1cccc2c1CC[C@@H]2Oc1cc(OCc2cc(C#N)cc(C#N)c2)c(CNC[C@H]2CCC(=O)N2)cc1Cl
5 to 500 nM
Cc1c(OCCCN2CCC(O)CC2)cccc1-c1cccc2c1CC[C@@H]2Oc1cc(OCc2cncc(C#N)c2)c(CN(C)[C@H](C(=O)O)[C@@H](C)O)cc1Cl
< 5 nM

Ask: Tell me the measured IC50 of CN1CCC(COc2cccc(-c3cccc4c3CC[C@@H]4Oc3cc(OCc4cncc(C#N)c4)c(CNC[C@H]4CCC(=O)N4)cc3Cl)c2Cl)C1 (stereo partly shown) , please.
Result: < 5 nM

Ask: IC50 lookup needed for N#Cc1cncc(COc2cc(O[C@H]3CCc4c(-c5cccc(OCCC(N)=O)c5Cl)cccc43)c(Cl)cc2CN[C@@H]2CCCC[C@@H]2O)c1 , thanks.
Result: 5 to 500 nM

Ask: Name the recorded IC50 for CCOc1cc(O[C@H]2CCc3c(-c4cccc(OCCCN5CCC(F)CC5)c4Cl)cccc32)c(Cl)cc1CN[C@H]1CCC(=O)NC1 .
Result: 5 to 500 nM

Ask: Fill blank: measured IC50 of the molecule CC(C)(O)[C@H](NCc1cc(Cl)c(O[C@H]2CCc3c(-c4cccc(OCCCN5CCC(F)CC5)c4Cl)cccc32)cc1OCc1cncc(C#N)c1)C(=O)O is ____.
Result: < 5 nM

Ask: # IC50 lookup, item N#Cc1cncc(COc2cc(O[C@H]3CCc4c(-c5cccc(OCCCN6CCC6)c5Cl)cccc43)c(Cl)cc2CNC[C@@H]2CCC(=O)N2)c1
Result: < 5 nM

Ask: What measured IC50 goes with N#Cc1cncc(COc2cc(O[C@H]3CCc4c(-c5cccc(OCCCN6CCC(F)CC6)c5Cl)cccc43)c(Cl)cc2CN2CC[C@@H](O)C2)c1 ?
Result: < 5 nM

Ask: What measured IC50 goes with N#Cc1cncc(COc2cc(O[C@H]3CCc4c(-c5cccc(OCCCN6CC(O)C6)c5C(F)(F)F)cccc43)c(Cl)cc2CNCC2CCC(=O)N2)c1 (stereo partly shown) ?
Result: 5 to 500 nM

Ask: Report IC50 for CCOc1cc(O[C@@H]2c3cccc(-c4cccc(OCCCN5CCC(C)(F)CC5)c4C)c3C[C@@H]2F)c(Cl)cc1CN[C@H](C(=O)NS(C)(=O)=O)[C@@H](C)O please.
Result: 5 to 500 nM

Ask: Fill in: IC50 of Cc1c(OCCCN2CC3(CC(O)C3)C2)cccc1-c1cccc2c1CC[C@@H]2Oc1cc(OCc2cncc(C#N)c2)c(CN[C@H](C(=O)O)[C@@H](C)O)cc1Cl is ___
Result: < 5 nM

Ask: Which value of IC50 has been reported for N#Cc1cncc(COc2cc(O[C@H]3CCc4c(-c5cccc(OCCCN6CC7(CC(O)C7)C6)c5Cl)cccc43)c(Cl)cc2CN[C@H]2CCC[C@@H]2O)c1 in the records?
Result: < 5 nM
